Source: PubChem BioAssay (EPA / NIEHS)

- TEST_NAME: BSK_hDFCGF_SRB: Viability Assessment in the BioMAP Diversity Plus: hDFCGF Assay (AID 2283061);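 also: cells exposed to compound for 24 h before the read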
- TEST_CONDITIONS: primary human foreskin fibroblasts
- Description: BSK_hDFCGF is a cell-based, multiplexed-readout assay that uses foreskin fibroblast, a human skin primary cell, with measurements taken at 24 hours after chemical dosing in a 96-well plate.BSK_hDFCGF_SRB is an assay component measured in the BSK_hDFCGF assay. It measures 0.1% sulforhodamine related to cell death using Sulforhodamine staining technology.Data from the assay component BSK_hDFCGF_SRB was analyzed into 1 assay endpoint. […]
Activity calls are given as the source filed them. The calls were made as follows: active = hit-call score of the fitted dose curve at least 0.9, where 1 is the maximum; inactive = score below 0.9.
Answer with one of the outcomes label 1 = active, label 0 = inactive

// below: answered compounds
COMPOUND	CLASS_ASSIGNMENT
Cc1ccn2nc(S(=O)(=O)Nc3c(F)cccc3F)nc2n1	label 0
CCCCSP(=O)(SCCCC)SCCCC	label 0

[in] Which outcome was entered for the compound Nc1c(Cl)cc([N+](=O)[O-])cc1Cl in this test?
[out] label 0

[in] Which outcome was entered for the compound CCOC(=O)COc1cc(-c2nn(C)c(OC(F)F)c2Cl)c(F)cc1Cl in this test?
[out] label 0

[in] Which outcome was entered for the compound CC(C)=CC1C(C(=O)OCN2C(=O)C3=C(CCCC3)C2=O)C1(C)C (configuration not stated) in this test?
[out] label 1

[in] Which outcome was entered for the compound CCOP(=S)(OCC)Oc1ccc2c(C)c(Cl)c(=O)oc2c1 in this test?
[out] label 0

[in] Which outcome was entered for the compound CSC1=N[C@@](C)(c2ccccc2)C(=O)N1Nc1ccccc1 in this test?
[out] label 0

[in] Which outcome was entered for the compound COP(=O)(NC(C)=O)SC (configuration not stated) in this test?
[out] label 0

[in] Which outcome was entered for the compound CC(=NC#N)N(C)Cc1ccc(Cl)nc1 in this test?
[out] label 0

---

- TEST_NAME: ATG_NFI_CIS: Attagene CIS-FACTORIAL HepG2 Assay for human Nuclear Factor I (NFI) (AID 2282989)
- TEST_CONDITIONS: HepG2 cis-regulatory reporter, NFI response element transcription; actives raise or lower the signal
Calls of active or inactive are those of the source. The calls were made as follows: active = hit-call score of the fitted dose curve at least 0.9, where 1 is the maximum; inactive = score below 0.9.
MEASURED_PROPERTY: outcome

COMPOUND	MEASURED_PROPERTY	OBSERVED_RESULT
CC(C)[C@H](C(=O)O[C@H](C#N)c1cccc(Oc2ccccc2)c1)c1ccc(Cl)cc1	outcome	inactive
CCc1cccc(C)c1N(C(=O)CCl)C(C)COC (stereo unspecified)	outcome	inactive
CCc1cnc(C2=NC(C)(C(C)C)C(=O)N2)c(C(=O)O)c1 (stereo unspecified)	outcome	inactive
CCOP(=O)(OCC)Oc1cc(C)nc(C(C)C)n1	outcome	inactive
S=C1NCCN1	outcome	inactive

Then this compound:
[in] Look at this compound and give its reported outcome. C=C(C)[C@H]1Cc2c(ccc3c2O[C@@H]2COc4cc(OC)c(OC)cc4[C@@H]2C3=O)O1
[out] inactive

---

- TARGET_ENTITY: human Constitutive Androstane Receptor (CAR), NR1I3 (gene 9970)
- TEST_NAME: NVS_NR_hCAR_Antagonist: NovaScreen (NVS) Nuclear Receptor Binding Assay for human Constitutive Androstane Receptor Antagonism (CAR) (AID 2283344)
- Protocol: NVS_NR_hCAR_Antagonist is a biochemical, single-readout assay that uses extracted gene-proteins in a cell-free assay. Measurements were taken 1 hour after chemical dosing in a 384-well plate.NVS_NR_hCAR_Antagonist is one of one assay component(s) measured or calculated from the NVS_NR_hCAR_Antagonist assay. […] This assay endpoint, NVS_NR_hCAR_Antagonist, was analyzed in the positive analysis fitting direction relative to DMSO as the negative control and baseline of activity. […]
Records with an inconclusive call do not appear. Active and inactive are the calls of the source. The calls were made as follows: active = hit-call score of the fitted dose curve at least 0.9, where 1 is the maximum; inconclusive = response in the unintended direction; inactive = score below 0.9.
Answer with one of the outcomes label 1 for active, label 0 for inactive

COMPOUND	CLASS_ASSIGNMENT
CCCCN(CC)c1c([N+](=O)[O-])cc(C(F)(F)F)cc1[N+](=O)[O-]	label 0
CNc1cnn(-c2cccc(C(F)(F)F)c2)c(=O)c1Cl	label 0
CCCSP(=O)(OCC)Oc1ccc(Br)cc1Cl (configuration not stated)	label 1
CCOC(=O)CC(SP(=O)(OC)OC)C(=O)OCC (configuration not stated)	label 0
COc1cccc(C(=O)NN(C(=O)c2cc(C)cc(C)c2)C(C)(C)C)c1C	label 0
Cc1cc(C2CC2)nc(Nc2ccccc2)n1	label 1

[in] Which outcome was entered for the compound CCC(=NOC/C=C/Cl)C1=C(O)CC(C2CCOCC2)CC1=O (configuration not stated) in this test?
[out] label 0

[in] Which outcome was entered for the compound C#CC(C)(C)NC(=O)c1cc(Cl)cc(Cl)c1 in this test?
[out] label 0

[in] Which outcome was entered for the compound N#CSCSC#N in this test?
[out] label 0

[in] Which outcome was entered for the compound CCOP(=S)(OCC)Oc1ccc([N+](=O)[O-])cc1 in this test?
[out] label 0

[in] Which outcome was entered for the compound CON=C(C(=O)OC)c1ccccc1CON=C(C)c1cccc(C(F)(F)F)c1 in this test?
[out] label 0

[in] Which outcome was entered for the compound CC[C@H](C)[C@H]1O[C@]2(C=C[C@@H]1C)C[C@@H]1C[C@@H](C/C=C(\C)[C@@H](O[C@H]3C[C@H](OC)[C@@H](O[C@H]4C[C@H](OC)[C@@H](NC)[C@H](C)O4)[C@H](C)O3)[C@@H](C)/C=C/C=C3\CO[C@@H]4[C@H](O)C(C)=C[C@@H](C(=O)O1)[C@]34O)O2 in this test?
[out] label 1

---

- Read-out: Nuclear factor erythroid 2-related factor 2 (Homo sapiens)
- TEST_NAME: LTEA_HepaRG_NFE2L2: Life Technologies and Expression Analysis (LTEA) Assay for Nuclear factor erythroid 2-related factor 2 (NFE2L2) Transcription Factor using HepaRG (AID 2283527)
- TEST_CONDITIONS: mRNA level, 48 h; actives raise or lower the signal
The source made the active and inactive calls. The calls were made as follows: active = hit-call score of the fitted dose curve at least 0.9, where 1 is the maximum; inactive = score below 0.9.
Answer with one of the outcomes active, inactive

// below: answered compounds
COMPOUND	CLASS_ASSIGNMENT
Nc1c(Cl)cc([N+](=O)[O-])cc1Cl	inactive
CCOP(=S)(OCC)OC(Cl)C(Cl)(Cl)Cl (centres undefined)	inactive
C[Si](Cn1cncn1)(c1ccc(F)cc1)c1ccc(F)cc1	active
CCOP(=O)(OCC)Oc1cc(C)nc(C(C)C)n1	inactive
Cc1ccn2nc(S(=O)(=O)Nc3c(F)cccc3F)nc2n1	inactive

[in] Which outcome was entered for the compound CC[C@H](C)[C@H]1O[C@]2(C=C[C@@H]1C)C[C@@H]1C[C@@H](C/C=C(\C)[C@@H](O[C@H]3C[C@H](OC)[C@@H](O[C@H]4C[C@H](OC)[C@@H](NC)[C@H](C)O4)[C@H](C)O3)[C@@H](C)/C=C/C=C3\CO[C@@H]4[C@H](O)C(C)=C[C@@H](C(=O)O1)[C@]34O)O2 in this test?
[out] inactive

---

- TEST_NAME: ATG_AP_1_CIS: Attagene CIS-FACTORIAL HepG2 Assay for human Activator Protein 1 (AP-1) (AID 2282931)
- TEST_CONDITIONS: HepG2 Attagene cis-factorial AP-1 reporter mRNA; actives raise or lower the signal
The source made the active and inactive calls. The calls were made as follows: active = hit-call score of the fitted dose curve at least 0.9, where 1 is the maximum; inactive = score below 0.9.
MEASURED_PROPERTY: AC50

Consider the reported AC50 for these molecules:
MOLECULE	AC50
Cc1nn(-c2cc(NS(C)(=O)=O)c(Cl)cc2Cl)c(=O)n1C(F)F	inactive
CNC(=O)Oc1cccc2c1OC(C)(C)O2	61 µM (active)
CSc1nnc(C(C)(C)C)c(=O)n1N	inactive
CNC(=O)ON=C(SC)C(=O)N(C)C	50 µM (active)
C#CCC1=C(C)C(OC(=O)C2C(C=C(C)C)C2(C)C)CC1=O (configuration not stated)	37.1 µM (active)

[in] Look at this molecule and give its reported AC50. CN(C)[C@@H]1C(=O)C(C(N)=O)=C(O)[C@@]2(O)C(=O)C3=C(O)c4c(O)cccc4[C@@](C)(O)[C@H]3[C@H](O)[C@@H]12
[out] inactive

[in] Look at this molecule and give its reported AC50. COP(=O)(OC)SCn1c(=O)oc2cc(Cl)cnc21
[out] inactive

[in] Look at this molecule and give its reported AC50. CCOP(=O)(OCC)Oc1cc(C)nc(C(C)C)n1
[out] inactive

[in] Look at this molecule and give its reported AC50. CCCCOC(=O)c1ccccc1C(=O)O
[out] inactive

[in] Look at this molecule and give its reported AC50. CCCOCC(=Nc1ccc(Cl)cc1C(F)(F)F)n1ccnc1
[out] inactive

[in] Look at this molecule and give its reported AC50. CN(C)NC(=O)CCC(=O)O
[out] inactive

[in] Look at this molecule and give its reported AC50. CCCSP(=O)(OCC)Oc1ccc(Br)cc1Cl (configuration not stated)
[out] inactive
